Cited source: patent US20260176249A1

Test: Permeability and efflux transporter substrate evaluation in Caco-2 cells
Assay type: in vitro ADME
Set-up: dose or concentration left out as unconfirmed
Conditions: human, pH 7.4; Caco-2, basolateral to apical, 120 min, pH 7.40
Measured Papp B→A at 120 min, listed per entry for reference.
State just the number; it will be interpreted in ×10⁻⁶ cm/s.

Example entries and their recorded answers appear below.
>  <MOLECULE>
CN1CCN(c2ccc(OC(F)(F)F)c(Nc3ncc4c(n3)-c3c(c(C(N)=O)nn3CCC#N)CC4)c2)CC1

>  <UNIT_SYMBOL>
×10⁻⁶ cm/s

>  <Papp B→A at 120 min>
25.5

$$$$
>  <MOLECULE>
CN1CCN(c2ccc(OC(F)(F)F)c(Nc3ncc4c(n3)-c3c(c(C(N)=O)cn3CCO)CC4)c2)CC1

>  <UNIT_SYMBOL>
×10⁻⁶ cm/s

>  <Papp B→A at 120 min>
26.1

$$$$
>  <MOLECULE>
CN1CCN(c2ccc(OC(F)(F)F)c(Nc3ncc4c(n3)-c3c(c(C(N)=O)nn3CCO)CC4)c2)CC1 [Onvansertib, reference compound]

>  <UNIT_SYMBOL>
×10⁻⁶ cm/s

>  <Papp B→A at 120 min>
43.6

$$$$
>  <MOLECULE>
Cn1nc(C(N)=O)c2ccc3cnc(Nc4cc(N5CCN(CCO)CC5)ccc4OC(F)(F)F)nc3c21

>  <UNIT_SYMBOL>
×10⁻⁶ cm/s

>  <Papp B→A at 120 min>
6.66

$$$$
>  <MOLECULE>
CN1CCN(c2ccc(OC(F)(F)F)c(Nc3ncc4c(n3)-c3c(c(C(=O)NS(=O)(=O)C5CC5)nn3CCO)CC4)c2)CC1

>  <UNIT_SYMBOL>
×10⁻⁶ cm/s

>  <Papp B→A at 120 min>
6.43

$$$$
>  <MOLECULE>
CN1CCN(c2ccc(OC(F)(F)F)c(Nc3ncc4c(n3)-c3c(c(C(=O)NNC(N)=O)nn3C)CC4)c2)CC1

>  <UNIT_SYMBOL>
×10⁻⁶ cm/s

>  <Papp B→A at 120 min>
15

$$$$
>  <MOLECULE>
CN1CCN(c2ccc(OC(F)(F)F)c(Nc3ncc4ccc5c(C(N)=O)nn(CCF)c5c4n3)c2)CC1

>  <UNIT_SYMBOL>
×10⁻⁶ cm/s

>  <Papp B→A at 120 min>
3.36

$$$$
>  <MOLECULE>
CN1CCN(c2ccc(OC(F)(F)F)c(Nc3ncc4c(n3)-c3c(c(C(=O)NN)nn3CCO)CC4)c2)CC1

>  <UNIT_SYMBOL>
×10⁻⁶ cm/s

>  <Papp B→A at 120 min>
13.7

$$$$

// moving on: another record for Papp B→A at 120 min
Find the recorded Papp B→A at 120 min belonging to `Cn1nc(C(N)=O)c2c1-c1nc(Nc3cc(N4CCN(CCO)CC4)ccc3OC(F)(F)F)ncc1CC2` and report it.
13.4

###

Measured IC50, listed per entry for reference.
Molecular target: PLK1 kinase (Homo sapiens, UniProt P53350)
Construct: purchased Carnabio (Carna Biosciences) 05-157
Sequence (P53350 whole entry): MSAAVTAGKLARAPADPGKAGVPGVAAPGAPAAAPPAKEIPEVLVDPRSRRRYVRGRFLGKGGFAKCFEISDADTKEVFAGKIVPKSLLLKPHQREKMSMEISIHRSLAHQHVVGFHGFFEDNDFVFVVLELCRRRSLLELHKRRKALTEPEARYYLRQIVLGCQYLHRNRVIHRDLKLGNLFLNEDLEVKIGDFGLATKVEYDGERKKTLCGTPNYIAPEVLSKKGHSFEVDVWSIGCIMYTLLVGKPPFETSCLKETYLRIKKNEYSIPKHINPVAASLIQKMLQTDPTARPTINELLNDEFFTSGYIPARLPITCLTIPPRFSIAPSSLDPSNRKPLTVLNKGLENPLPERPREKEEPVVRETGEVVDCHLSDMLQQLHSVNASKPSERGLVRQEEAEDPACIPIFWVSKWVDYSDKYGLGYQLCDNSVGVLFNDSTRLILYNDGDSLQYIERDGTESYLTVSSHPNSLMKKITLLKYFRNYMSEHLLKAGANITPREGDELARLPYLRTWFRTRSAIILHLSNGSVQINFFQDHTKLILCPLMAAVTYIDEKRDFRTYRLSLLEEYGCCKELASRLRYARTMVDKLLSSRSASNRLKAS
Assay: Inhibitory activity on PLK1 kinase
Type: biochemical
Details: PLK1 kinase, highest concentration 1 μM, 10 points; read-out: IC50
State just the number; it will be interpreted in nM.

Example entries and their recorded answers appear below.
>  <SMILES_NOTATION>
CN1CCN(c2ccc(OC(F)(F)F)c(Nc3ncc4c(n3)-c3c(c(C(=O)NO)nn3CCO)CC4)c2)CC1

>  <UNIT_SYMBOL>
nM

>  <IC50>
1.16

$$$$
>  <SMILES_NOTATION>
CN1C2CCC1CN(c1ccc(OC(F)(F)F)c(Nc3ncc4c(n3)-c3c(c(C(N)=O)nn3CCO)CC4)c1)C2

>  <UNIT_SYMBOL>
nM

>  <IC50>
3.66

$$$$
>  <SMILES_NOTATION>
CN1CCN(c2ccc(OC(F)(F)F)c(Nc3ncc4ccc5c(C(N)=O)cn(C)c5c4n3)c2)CC1

>  <UNIT_SYMBOL>
nM

>  <IC50>
1.51

$$$$
>  <SMILES_NOTATION>
CN1CCN(c2ccc(OC(F)(F)F)c(Nc3ncc4c(n3)-c3c(c(C(=O)NS(=O)(=O)C(F)(F)F)nn3CCO)CC4)c2)CC1

>  <UNIT_SYMBOL>
nM

>  <IC50>
14.7

$$$$
>  <SMILES_NOTATION>
CN1CCN(c2ccc(OC(F)(F)F)c(Nc3ncc4c(n3)-c3c(c(C(N)=O)nn3CCO)N(C)C4)c2)CC1

>  <UNIT_SYMBOL>
nM

>  <IC50>
73.3

$$$$
>  <SMILES_NOTATION>
CN1CCN(c2ccc(OC(F)(F)F)c(Nc3ncc4c(n3)-c3c(c(C(N)=O)nn3CCC#N)CC4)c2)CC1

>  <UNIT_SYMBOL>
nM

>  <IC50>
1.64

$$$$

// moving on: another record for IC50
Find the recorded IC50 belonging to `CN1CCN(c2ccc(OC(F)(F)F)c(Nc3ncc4c(n3)-c3c(c(C(=O)NO)nn3CCF)CC4)c2)CC1` and report it.
0.814

###

Assay: Metabolic stability in rat liver microsomes
Assay type: in vitro ADME
MEASURED_PARAMETER: Clearance rate

>  <COMPOUND>
Cn1nc(C(N)=O)c2ccc3cnc(Nc4cc(N5CCN(CCO)CC5)ccc4OC(F)(F)F)nc3c21 [Compound 16]

>  <Clearance rate>
Medium

$$$$
>  <COMPOUND>
CCc1sc(C(N)=O)c2c1-c1nc(Nc3cc(N4CCN(C)CC4)ccc3OC(F)(F)F)ncc1CC2 [Compound 7]

>  <Clearance rate>
High

$$$$
>  <COMPOUND>
CN1CCN(c2ccc(OC(F)(F)F)c(Nc3ncc4c(n3)-c3c(c(C(=O)NO)nn3CCF)CC4)c2)CC1 [Compound 17]

>  <Clearance rate>
High

$$$$
>  <COMPOUND>
CN1CCN(c2ccc(OC(F)(F)F)c(Nc3ncc4c(n3)-c3c(c(C(N)=O)nn3CCC#N)CC4)c2)CC1 [Compound 4]

>  <Clearance rate>
High

$$$$
>  <COMPOUND>
CN1CCN(c2ccc(OC(F)(F)F)c(Nc3ncc4ccc5c(C(N)=O)nn(CCF)c5c4n3)c2)CC1 [Compound 18]

>  <Clearance rate>
High

$$$$

Find the recorded Clearance rate belonging to CN1CCN(c2ccc(OC(F)(F)F)c(Nc3ncc4ccc5c(C(=O)NO)nn(CCO)c5c4n3)c2)CC1 [Compound 19] and report it.
Medium

Find the recorded Clearance rate belonging to Cn1nc(C(N)=O)c2c1-c1nc(Nc3cc(N4CCN(CCO)CC4)ccc3OC(F)(F)F)ncc1CC2 [Compound 20] and report it.
Medium

Find the recorded Clearance rate belonging to CN1CCN(c2ccc(OC(F)(F)F)c(Nc3ncc4c(n3)-c3c(c(C(=O)NNC(N)=O)nn3C)CC4)c2)CC1 [Compound 12] and report it.
High

Find the recorded Clearance rate belonging to CN1CCN(c2ccc(OC(F)(F)F)c(Nc3ncc4c(n3)-c3c(c(C(=O)NN)nn3CCO)CC4)c2)CC1 [Compound 13] and report it.
Medium

###

Assay: Permeability and efflux transporter substrate evaluation in Caco-2 cells
Format: in vitro ADME
Set-up: dose or concentration left out as unconfirmed
Settings: human, pH 7.4; Caco-2, basolateral to apical, 120 min, pH 7.40
MEASURED_PARAMETER: Papp B→A at 120 min
Output should be the measured figure followed by the unit it is expressed in.

Find the recorded Papp B→A at 120 min belonging to CN1CCN(c2ccc(OC(F)(F)F)c(Nc3ncc4c(n3)-c3c(c(C(=O)NOCCO)nn3C)CC4)c2)CC1 [Compound 11] and report it.
25 ×10⁻⁶ cm/s

Find the recorded Papp B→A at 120 min belonging to CN1CCN(c2ccc(OCC(F)(F)F)c(Nc3ncc4c(n3)-c3c(c(C(N)=O)nn3CCO)CC4)c2)CC1 [Compound 24] and report it.
29.5 ×10⁻⁶ cm/s

Find the recorded Papp B→A at 120 min belonging to CN1CCN(c2ccc(OC(F)(F)F)c(Nc3ncc4ccc5c(C(N)=O)nn(CCO)c5c4n3)c2)CC1 [Compound 1] and report it.
20.8 ×10⁻⁶ cm/s

###

Test: Metabolic stability in human liver microsomes
Assay type: in vitro ADME
MEASURED_PARAMETER: Clearance rate

Example entries and their recorded answers appear below.
>  <MOLECULE>
CN1CCN(c2ccc(OC(F)(F)F)c(Nc3ncc4c(n3)-c3c(c(C(N)=O)cn3CCO)CC4)c2)CC1

>  <RESULT>
Medium

$$$$
>  <MOLECULE>
CN1CCN(c2ccc(OC(F)(F)F)c(Nc3ncc4c(n3)-c3c(c(C(=O)NO)nn3CCF)CC4)c2)CC1

>  <RESULT>
Medium

$$$$
>  <MOLECULE>
CN1CCN(c2ccc(OC(F)(F)F)c(Nc3ncc4ccc5c(C(N)=O)nn(CCF)c5c4n3)c2)CC1

>  <RESULT>
High

$$$$
>  <MOLECULE>
CN1CCN(c2ccc(OC(F)(F)F)c(Nc3ncc4ccc5c(C(N)=O)nn(C)c5c4n3)c2)CC1

>  <RESULT>
High

$$$$
>  <MOLECULE>
Cn1nc(C(N)=O)c2c1-c1nc(Nc3cc(N4CCN(CCO)CC4)ccc3OC(F)(F)F)ncc1CC2

>  <RESULT>
Medium

$$$$

// moving on: another record for Clearance rate
Find the recorded Clearance rate belonging to `CN1CCN(c2ccc(OC(F)(F)F)c(Nc3ncc4c(n3)-c3c(c(C(=O)NNC(N)=O)nn3C)CC4)c2)CC1` and report it.
Medium
